Here the recorded log2 fold change of degron read counts is given for each entry.
# Target Of Assay: T1, CRBN, Q96SW2;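 also: pooled lentiviral library of zinc finger degron-EGFP fusions in mCherry-positive Jurkat cells, FACS-sorted after compound exposure, with degron abundance counted by next-generation sequencing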
# T1 chain: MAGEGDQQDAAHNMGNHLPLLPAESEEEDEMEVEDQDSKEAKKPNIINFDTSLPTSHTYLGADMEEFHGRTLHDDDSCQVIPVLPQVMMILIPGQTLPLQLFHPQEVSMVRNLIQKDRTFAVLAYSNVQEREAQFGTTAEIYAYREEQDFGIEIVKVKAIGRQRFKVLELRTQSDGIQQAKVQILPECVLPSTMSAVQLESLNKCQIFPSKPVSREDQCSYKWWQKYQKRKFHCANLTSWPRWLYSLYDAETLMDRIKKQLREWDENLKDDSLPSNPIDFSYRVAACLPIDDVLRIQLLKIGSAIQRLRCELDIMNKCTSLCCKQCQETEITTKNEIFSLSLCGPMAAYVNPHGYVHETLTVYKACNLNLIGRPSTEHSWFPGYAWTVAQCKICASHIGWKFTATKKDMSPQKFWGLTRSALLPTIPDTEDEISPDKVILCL
# Measurement Description: log2 fold change of degron read counts, EGFP-low vs EGFP+ sorted cells (limma voom), compound-induced degradation; higher = more compound-induced degradation of the degron-EGFP fusion; degrons are variants of IKZF1/3 zinc finger 2; compound dose not given here
# Run Conditions: Jurkat; 18 h; compound: compound 22 (5-morpholino-thalidomide)
In all, about 8,300 sequences were measured (“log2 fold change of degron read counts, EGFP-low vs EGFP+ sorted cells (limma voom), compound-induced degradation”: median about -1.1, highest 2% from about 3.2 on). Only a selection was taken, and the highest values are over-represented in it overall.

[
  {
    "Item Sequence": "FHCNICGAGFTQKGNLLRHIKL [46F_47H_49N_50I_52G_53A_54G_55F_67L_, Q9UKT9]",
    "Reading": 0.175
  },
  {
    "Item Sequence": "FCCEICGAAFTQKGNLLRHIKL [46F_47C_49E_50I_52G_53A_54A_55F_67L_, Q9UKT9]",
    "Reading": 3.1
  },
  {
    "Item Sequence": "FHCPVCGAAFTQKGNLLRHIKL [46F_47H_49P_50V_52G_53A_54A_55F_67L_, Q9UKT9]",
    "Reading": 2.4
  }
]

Challenge: # query: log2 fold change of degron read counts of entry FWCNQCGRCFTQKGNLLRHIKL [46F_47W_49N_50Q_52G_53R_54C_55F_67L_, Q9UKT9]
Response given: -2.02

Challenge: # query: log2 fold change of degron read counts of entry FDCEVCGAYFTQKGNLLRHIKL [46F_47D_49E_50V_52G_53A_54Y_55F_67L_, Q9UKT9]
Response given: -1.5

Challenge: # query: log2 fold change of degron read counts of entry FECPICGRGFTQKGNLLRHIKL [46F_47E_49P_50I_52G_53R_54G_55F_67L_, Q9UKT9]
Response given: -2.41

Challenge: # query: log2 fold change of degron read counts of entry FECPVCGAAFTQKGNLLRHIKL [46F_47E_49P_50V_52G_53A_54A_55F_67L_, Q9UKT9]
Response given: -0.445
